Entry source: the supplement of paper PMC10201428

system: VchCAST RNA-guided transposition machinery (E. coli BL21(DE3) host, lacZ target); assay: relative integration efficiency (T-LR orientation) vs wild-type transposon end (log2 (normalized fold change)); transposon end mutated: right end (5 bp flank + 75 bp right end); higher = more efficient transposition
Classify as follows. Reported relative integration efficiency (log2) greater than or equal to 0.9: 1.0. Reported relative integration efficiency (log2) below: 0.0.

Recorded results for 10 sequences are shown here.
[[record]]
residues = "ACATTTGTTGATACAACCATAAAGTGATATTTACACCCATAAATTGATATTGCTCACAACCATAAGTTGATATTTTCTCTGATCATAGTCAGACCAACATTGCTACGACCCGTATTCGCACCGACAC"
measured_on = "VchCAST RNA-guided transposition machinery (E. coli BL21(DE3) host, lacZ target)"
class_label = 0.0

[[record]]
residues = "ACATTTGTTGATAGTACCATAAAATGATAATTACACCCATAAATTGATAATTATCACACCCATAAATTGATATTGCCTCTGATCATAGTCAGACCAACATTGCTACGACCCGTATTCGCACCGACAC"
measured_on = "VchCAST RNA-guided transposition machinery (E. coli BL21(DE3) host, lacZ target)"
class_label = 0.0

[[record]]
residues = "ACATTTGTTGATACAACCATAAAATGATAATTAATAATTATTTATAATCAGCAACTTAACCCACCCATAAATTGATAATTATCACACCCATAAATTGATATTGCCTCTGATCATAGTCAGACCAACA"
measured_on = "VchCAST RNA-guided transposition machinery (E. coli BL21(DE3) host, lacZ target)"
class_label = 0.0

[[record]]
residues = "ACATTTGTGGATACAACCATAAAACGATAATTACACCCATAAATTCATCATTATCACACCCAATTTAACTATAACGCTCTGATCATAGTCAGACCAACATTGCTACGACCCGTATTCGCACCGACAC"
measured_on = "VchCAST RNA-guided transposition machinery (E. coli BL21(DE3) host, lacZ target)"
class_label = 1.0

[[record]]
residues = "ACATTTGTTGATACAACCATAAAATGATAATTACACCCATAAATCTGAAATTATCACACCCATAAATTGATATTGCCTCTGATCATAGTCAGACCAACATTGCTACGACCCGTATTCGCACCGACAC"
measured_on = "VchCAST RNA-guided transposition machinery (E. coli BL21(DE3) host, lacZ target)"
class_label = 0.0

[[record]]
residues = "ACATTTGTTGATACACCCATAAATTGATATTGCCAACCATAAAATGATAATTATCACAACCATAAAATGATAATTACTCTGATCATAGTCAGACCAACATTGCTACGACCCGTATTCGCACCGACAC"
measured_on = "VchCAST RNA-guided transposition machinery (E. coli BL21(DE3) host, lacZ target)"
class_label = 0.0

[[record]]
residues = "ACATTTGTTGATACAACCATAAAATGATAATTACACCCATAAATTCATCATTATCACCCCCAATTTAACTATAACGCTCTGATCATAGTCAGACCAACATTGCTACGACCCGTATTCGCACCGACAC"
measured_on = "VchCAST RNA-guided transposition machinery (E. coli BL21(DE3) host, lacZ target)"
class_label = 1.0

[[record]]
residues = "ACATTAGTTCATACAACCATAAAATGATAATTACACCCATAAATGGATCATTATCACACCCAATTTAACTATAACGCTCTGATCATAGTCAGACCAACATTGCTACGACCCGTATTCGCACCGACAC"
measured_on = "VchCAST RNA-guided transposition machinery (E. coli BL21(DE3) host, lacZ target)"
class_label = 0.0

[[record]]
residues = "ACATTTGTTGATACAACCATAAAATGATAATTACACCCATAAATTGATAATTATCACACCCATAAATTGATATTGCCAGTGATCATAGTCAGACCAACATTGCTACGACCCGTATTCGCACCGACAC"
measured_on = "VchCAST RNA-guided transposition machinery (E. coli BL21(DE3) host, lacZ target)"
class_label = 0.0

[[record]]
residues = "ACATTTGTTGATACAACCATAAAATGAATTAATCACCCATAAATTGAATTAATTCACACCCATAAATTGAATAACGCTCTGATCATAGTCAGACCAACATTGCTACGACCCGTATTCGCACCGACAC"
measured_on = "VchCAST RNA-guided transposition machinery (E. coli BL21(DE3) host, lacZ target)"
class_label = 0.0


Query block: Given the entry "ACATTTGTTGATACAACCATAAAATGATAATTACACCCATAAATTGATAATTATCACACCCATAAATTGATATTGCCTCTGATAACTTCGTATAGGATACTTTATACGAAGTTATTCGCACCGACAC" , answer whether its relative integration efficiency (log2) meets or surpasses 0.9.
Result block: 1.0

Query block: Could you please find out whether "ACATTTGTTGATACAACCATAAAATGATAATTACCAAACGCCCGGTCGCCGGCGACACAAACGCCCGGTCGCGGTAAGAGGATCATAGTCAGACCAACATTGCTACGACCCGTATTCGCACCGACAC" has relative integration efficiency (log2) that meets 0.9 or exceeds it?
Result block: 0.0
